biological target: Neutrophil elastase (Homo sapiens, UniProt P08246); experiment: In vitro inhibition constant of human leukocyte elastase.
Sequence (P08246 whole entry): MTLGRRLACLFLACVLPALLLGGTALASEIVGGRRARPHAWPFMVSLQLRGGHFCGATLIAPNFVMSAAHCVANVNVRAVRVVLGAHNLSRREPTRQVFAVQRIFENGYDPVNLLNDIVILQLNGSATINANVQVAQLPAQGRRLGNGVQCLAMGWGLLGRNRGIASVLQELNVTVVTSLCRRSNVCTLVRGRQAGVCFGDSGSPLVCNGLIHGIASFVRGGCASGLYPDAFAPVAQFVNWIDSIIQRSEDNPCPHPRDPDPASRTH
pKi: −log10 of the molar value.
pKi below 8 gives label 0; pKi at or above it gives label 1.

Use the examples below as a reference point.
CCC(C)c1cccc2c1C(=O)N(COC(=O)c1c(Cl)cccc1Cl)S2(=O)=O (stereo not given) | label 1
O=C(OCN1C(=O)c2ccccc2S1(=O)=O)c1c(C(F)(F)F)cccc1C(F)(F)F | label 0
Cc1cccc2c1C(=O)N(COC(=O)c1c(Cl)cccc1Cl)S2(=O)=O | label 1
Cc1cccc(C)c1C(=O)OCN1C(=O)c2ccccc2S1(=O)=O | label 1

q: Decide: is the reported value of pKi for "CC(=O)OCN1C(=O)c2ccccc2S1(=O)=O" equal to or greater than 8?
a: label 0

q: Decide: is the reported value of pKi for "CC(C)(C)c1cccc2c1C(=O)N(COC(=O)c1c(Cl)cccc1Cl)S2(=O)=O" equal to or greater than 8?
a: label 0

q: Decide: is the reported value of pKi for "CC(=O)Nc1cccc(Cl)c1C(=O)OCN1C(=O)c2ccccc2S1(=O)=O" equal to or greater than 8?
a: label 0

q: Decide: is the reported value of pKi for "O=C(OCN1C(=O)c2c(-c3ccccc3)cccc2S1(=O)=O)c1c(Cl)cccc1Cl" equal to or greater than 8?
a: label 1
